// Kappa-type opioid receptor (Homo sapiens, UniProt P41145) Ki records

Recorded Ki, per entry:
| Given Smiles | System | Ki |
| --- | --- | --- |
| C[C@H]1CN(C(=O)c2ccc(-c3cccc(F)c3)cc2)CCN1C(=O)c1ccc2cc[nH]c2c1 | Kappa-type opioid receptor (Homo sapiens, UniProt P41145) | > 10 µM |
| C[C@H]1CN(C(=O)c2ccc(-c3cccc(OC(F)(F)F)c3)cc2)CCN1C(=O)c1ccc2cc[nH]c2c1 | Kappa-type opioid receptor (Homo sapiens, UniProt P41145) | > 10 µM |

Query :: // fetch Ki; item: C[C@H]1CN(C(=O)c2ccc(-c3ccc(OC(F)(F)F)cc3)cc2)CCN1C(=O)c1ccc2cc[nH]c2c1 ; system: Kappa-type opioid receptor (Homo sapiens, UniProt P41145)
Sequence (P41145 whole entry): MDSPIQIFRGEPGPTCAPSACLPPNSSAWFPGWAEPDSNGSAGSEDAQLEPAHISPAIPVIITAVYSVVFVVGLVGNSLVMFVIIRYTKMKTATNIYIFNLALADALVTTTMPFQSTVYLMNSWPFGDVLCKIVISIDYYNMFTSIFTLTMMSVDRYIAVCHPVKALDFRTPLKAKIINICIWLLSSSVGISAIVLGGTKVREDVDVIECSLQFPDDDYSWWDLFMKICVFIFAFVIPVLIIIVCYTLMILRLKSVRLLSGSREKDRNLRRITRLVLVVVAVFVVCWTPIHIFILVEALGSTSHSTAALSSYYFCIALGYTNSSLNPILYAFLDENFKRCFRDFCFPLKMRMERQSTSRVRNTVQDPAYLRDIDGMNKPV
Result :: > 10 µM

Query :: // fetch Ki; item: Cc1ccccc1-c1ccc(C(=O)N2CCN(C(=O)c3ccc4cc[nH]c4c3)[C@@H](C)C2)cc1 ; system: Kappa-type opioid receptor (Homo sapiens, UniProt P41145)
Result :: > 10 µM

Query :: // fetch Ki; item: COc1ccccc1-c1ccc(C(=O)N2CCN(C(=O)c3ccc4cc[nH]c4c3)[C@@H](C)C2)cc1 ; system: Kappa-type opioid receptor (Homo sapiens, UniProt P41145)
Result :: > 10 µM

Query :: // fetch Ki; item: C[C@H]1CN(C(=O)c2ccc(-c3ccccc3)cc2)CCN1C(=O)c1ccc2cc[nH]c2c1 ; system: Kappa-type opioid receptor (Homo sapiens, UniProt P41145)
Result :: > 10 µM

Query :: // fetch Ki; item: C[C@H]1CN(C(=O)c2ccc(-c3ccccc3Cl)cc2)CCN1C(=O)c1ccc2cc[nH]c2c1 ; system: Kappa-type opioid receptor (Homo sapiens, UniProt P41145)
Result :: > 10 µM
